# credit: patent US12612424B2

biological target: JAK3 (Homo sapiens, UniProt P52333); construct: purchased Thermo fisher PV3855; test: JAK3 biochemical assay (ADP-GLO Kinase Assay); details: ratio of JAK3 IC50 to HPK1 IC50; second testing facility
Sequence (P52333 781-1124 limits assumed): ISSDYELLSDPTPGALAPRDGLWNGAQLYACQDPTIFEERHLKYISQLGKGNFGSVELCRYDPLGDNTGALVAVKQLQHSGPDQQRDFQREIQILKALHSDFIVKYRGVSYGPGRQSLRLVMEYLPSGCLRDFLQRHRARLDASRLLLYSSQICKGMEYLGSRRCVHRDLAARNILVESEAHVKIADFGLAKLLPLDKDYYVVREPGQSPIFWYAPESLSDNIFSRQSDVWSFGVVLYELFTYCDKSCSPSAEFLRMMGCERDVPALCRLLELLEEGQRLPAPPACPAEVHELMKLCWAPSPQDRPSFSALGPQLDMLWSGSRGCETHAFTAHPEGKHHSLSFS
valueType: JAKs/HPK1 IC50 Ratio, N*

1) COc1cc2c(cc1Nc1ncc(Cl)c(-n3cnc4ccccc43)n1)CN(C)CC2	571
2) COc1cc2c(cc1Nc1ncc3ccn(-c4ccccc4)c3n1)CN(C)CC2	287

A. CCc1c[nH]c2ncc(-c3ccc(C)c(P(C)(C)=O)c3)cc12
B. COc1nc2c(cc1Nc1ncc(Cl)c(N3CCc4ncccc43)n1)CN(C)CC2
C. COc1cc2c(cc1Nc1ncc(Cl)c(-n3ccc4ccccc43)n1)CN(C)CC2
D. CCc1c(Cl)[nH]c2ncc(-c3ccc(N)c(P(C)(C)=O)c3)cc12
E. CN1CCc2ccc(Nc3ncc(Cl)c(N4CCc5ccccc54)n3)cc2C1
Query: Output the entries ranked by JAKs/HPK1 IC50 Ratio, N* from maximum down to minimum. Answer by writing out the labels in the requested order.
Reply: C, B, A, D, E
